# target-of-assay: T1, monkey GPC3-His protein (monkey)
# T1 construct: Bought recombinant protein; also called monkey GPC3 protein
# protocol-description: SPR, antibody captured on Protein A chip, monkey GPC3-His analyte;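 further: run at 25 °C with 240 s association and up to 600 s dissociation, double-referenced, kinetics fitted to a 1:1 Langmuir binding model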
measurement-label: Kd (nM)
Answer with a number only, understood to be in nM.

Q. Bench note: what Kd did F1.153.1 (antibody, human IgG1, kappa, V domains shown, Human-murine chimeric antibody) VH: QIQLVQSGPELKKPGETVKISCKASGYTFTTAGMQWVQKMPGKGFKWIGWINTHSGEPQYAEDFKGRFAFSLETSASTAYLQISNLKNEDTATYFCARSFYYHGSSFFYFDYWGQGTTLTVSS VL: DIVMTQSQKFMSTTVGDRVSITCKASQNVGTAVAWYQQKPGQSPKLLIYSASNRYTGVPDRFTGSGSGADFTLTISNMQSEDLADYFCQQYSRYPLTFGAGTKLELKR show?
A. 0.414

Origin of values: patent US20260116991A1
